Exercise: state measured Activity (%) 24 h prior to infection (30 mg/kg) for each of the compounds provided.
Tested on: P. berghei
measurement description: Prophylactic activity against P. berghei in vivo (mice dosed before infection)
conditions: single 30 mg/kg oral dose 24 h prior to infection; parasitemia day 3 post-infection
Numbers only, in %.

Before answering, review these 3 worked examples.
# compound, reported measurement
records = [
    ("CS(=O)(=O)O.c1cc([C@H]2CC[C@]3(CC2)OOC2(O3)C3CC4CC(C3)CC2C4)ccc1OC1CCNCC1 (some centres unmarked)", 99.8),
    ("CC(C)(N)CNC(=O)C[C@H]1CC[C@]2(CC1)OO[C@]1(O2)C2CC3CC(C2)CC1C3 [OZ277, reference compound]", 13),
    ("CS(=O)(=O)O.c1cc(C2CCC3(CC2)OOC2(O3)C3CC4CC(C3)CC2C4)ccc1OCCN1CCOCC1 (centres unmarked)", 99.8),
]

Please look at the items below and tell me Activity (%) 24 h prior to infection (30 mg/kg) for each one, in order.
1. CS(=O)(=O)O.NCCCCCOc1ccc(C2CCC3(CC2)OOC2(O3)C3CC4CC(C3)CC2C4)cc1 (centres unmarked)
2. O[C@H]1CC[C@@H](C2CCC3(CC2)OOC2(O3)C3CC4CC(C3)CC2C4)CC1 (some centres unmarked)
3. CC(C)(CN)Oc1ccc(C2CCC3(CC2)OOC2(O3)C3CC4CC(C3)CC2C4)cc1.CS(=O)(=O)O (centres unmarked)
4. CS(=O)(=O)O.c1cc([C@H]2CC[C@]3(CC2)OOC2(O3)C3CC4CC(C3)CC2C4)ccc1OCCCN1CCOCC1 (some centres unmarked)
5. OC1CCN(CCOc2ccc([C@H]3CC[C@]4(CC3)OOC3(O4)C4CC5CC(C4)CC3C5)cc2)CC1 (some centres unmarked)

### Response
[99.8, 99.7, 99.9, 99.9, 99.9]

Source listed as patent US8067620B2.
